Data credit: patent US20200317776A1

# assayedSystem: human TREM2/DAP12 fusion protein (human, UniProt O43914 41-113, limits assumed)
# Sequence (O43914 other isoform, or with tags, fused parts or gaps limits assumed): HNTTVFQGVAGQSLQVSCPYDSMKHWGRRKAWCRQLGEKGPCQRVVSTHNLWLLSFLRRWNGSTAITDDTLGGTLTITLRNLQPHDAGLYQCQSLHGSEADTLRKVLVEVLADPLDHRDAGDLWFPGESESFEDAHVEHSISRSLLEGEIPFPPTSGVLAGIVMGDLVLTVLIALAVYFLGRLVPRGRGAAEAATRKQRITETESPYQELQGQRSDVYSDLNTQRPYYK
# protocolNotes: cell-based or functional assay
Entries and their Luciferase activation soluble 10 nM IgG, FOC
resultType: Luciferase activation soluble 10 nM IgG, FOC (FOC)

{"binder": "AL2p-23 (antibody, V domains shown, Fab and IgG formats under one id) VH: QVQLVQSGAEVKKPGSSVKVSCKASGYAFSSHWMNWVRQAPGQGLEWMGRIYPGDGQTNYAQKRQGRVTITADESTSTAYMELSSLRSEDTAVYYCARLLRNQPGESYAMDYWGQGTLVTVSS VL: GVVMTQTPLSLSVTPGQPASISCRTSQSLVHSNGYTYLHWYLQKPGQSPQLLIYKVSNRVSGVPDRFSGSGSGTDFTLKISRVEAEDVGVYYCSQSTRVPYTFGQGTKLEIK", "assayResult": 2.53}
{"binder": "AL2p-3 (antibody, V domains shown, AL2p-h50 variant; Fab and IgG formats under one id) VH: QVQLVQSGAEVKKPGSSVKVSCKASGYAFSSSWMNWVRQAPGQGLEWMGRIYPGEGDTNYAQKFQGRVTITADESTSTAYMELSSLRSEDTAVYYCARLLRNQPGESYAMDYWGQGTLVTVSS VL: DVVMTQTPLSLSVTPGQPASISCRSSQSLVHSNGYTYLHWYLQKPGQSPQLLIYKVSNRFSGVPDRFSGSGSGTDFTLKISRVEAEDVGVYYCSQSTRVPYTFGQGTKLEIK", "assayResult": 1.29}
{"binder": "AL2p-16 (antibody, V domains shown, Fab and IgG formats under one id) VH: QVQLVQSGAEVKKPGSSVKVSCKASGYAFSSHWMNWVRQAPGQGLEWMGRIYPGDGDTNYAQKFRGRVTITADESTSTAYMELSSLRSEDTAVYYCARLLRNQPGASYAMDYWGQGTLVTVSS VL: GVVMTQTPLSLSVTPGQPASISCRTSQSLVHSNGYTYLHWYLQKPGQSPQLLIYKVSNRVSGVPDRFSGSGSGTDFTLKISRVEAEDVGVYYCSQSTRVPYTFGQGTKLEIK", "assayResult": 2.6}
{"binder": "AL2p-26 (antibody, V domains shown, Fab and IgG formats under one id) VH: QVQLVQSGAEVKKPGSSVKVSCKASGYAFSSHWMNWVRQAPGQGLEWMGRIYPGGGDTNYAQKRQGRVTITADESTSTAYMELSSLRSEDTAVYYCARLLRNQPGESYAMDYWGQGTLVTVSS VL: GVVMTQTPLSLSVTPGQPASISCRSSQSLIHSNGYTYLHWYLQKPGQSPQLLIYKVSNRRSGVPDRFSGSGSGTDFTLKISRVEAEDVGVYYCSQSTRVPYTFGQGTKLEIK", "assayResult": 2.59}
{"binder": "AL2p-2 (antibody, V domains shown, AL2p-h50 variant; Fab and IgG formats under one id) VH: QVQLVQSGAEVKKPGSSVKVSCKASGYAFSSSWMNWVRQAPGQGLEWMGRIYPGGGDTNYAQKFQGRVTITADESTSTAYMELSSLRSEDTAVYYCARLLRNQPGESYAMDYWGQGTLVTVSS VL: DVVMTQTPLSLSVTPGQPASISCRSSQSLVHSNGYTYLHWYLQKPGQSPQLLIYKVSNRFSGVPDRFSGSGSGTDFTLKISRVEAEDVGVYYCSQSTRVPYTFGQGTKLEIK", "assayResult": 1.7}
